B1: library; a variant is named by its letters at N, in order (parent)
chain: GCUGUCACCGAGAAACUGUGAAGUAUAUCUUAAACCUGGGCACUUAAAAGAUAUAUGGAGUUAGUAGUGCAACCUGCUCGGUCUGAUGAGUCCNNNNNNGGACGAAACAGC

- Variants of: B1
- experiment: normalized RNA/DNA level with ligand (relative to sTRSVctl = 100) (log10 (% of sTRSVctl)); HEK293T; ligand: cyclic di-GMP (c-di-GMP-II aptamer); ligand concentration (+) RNA-Seq: 1 mM; higher = less ribozyme self-cleavage, higher mRNA level
- condition-label: reporter: mCherry (pCS4076), ligand present: yes
Parameter: normalized RNA/DNA level with ligand (log10). Scope: all listed entries.

Below are worked cases with known answers.
GCUGUCACCGAGAAACUGUGAAGUAUAUCUUAAACCUGGGCACUUAAAAGAUAUAUGGAGUUAGUAGUGCAACCUGCUCGGUCUGAUGAGUCCAAUAACGGACGAAACAGC [AAUAAC] | 1.8
GCUGUCACCGAGAAACUGUGAAGUAUAUCUUAAACCUGGGCACUUAAAAGAUAUAUGGAGUUAGUAGUGCAACCUGCUCGGUCUGAUGAGUCCGUGGUUGGACGAAACAGC [GUGGUU] | 1.78
GCUGUCACCGAGAAACUGUGAAGUAUAUCUUAAACCUGGGCACUUAAAAGAUAUAUGGAGUUAGUAGUGCAACCUGCUCGGUCUGAUGAGUCCUAAUACGGACGAAACAGC [UAAUAC] | 1.81

Next:
Give its normalized RNA/DNA level with ligand (log10) value. Item: GCUGUCACCGAGAAACUGUGAAGUAUAUCUUAAACCUGGGCACUUAAAAGAUAUAUGGAGUUAGUAGUGCAACCUGCUCGGUCUGAUGAGUCCUCUUGUGGACGAAACAGC [UCUUGU]
1.88

meta.source: the supplement of paper PMC6757056
